The reported measurements were obtained from patent US7629294B2.

experiment: physchem; settings: logPs
Experimental Endpoint: chromatographic logP

{"columns": ["Compound", "chromatographic logP"],
 "data": [
  ["CC(C)C(C)Nc1c(-c2ccc(F)cc2Cl)c(Cl)nc2c(-c3nnc(N)s3)cnn12 (stereo not drawn)", 3.57],
  ["Cc1nnc(-c2cnn3c(NC(C)C(C)C)c(-c4ccc(F)cc4Cl)c(Cl)nc23)o1 (stereo not drawn)", 3.94],
  ["COC(=O)c1cnn2c(NC(C)C(C)C)c(-c3sccc3C)c(OC)nc12 (stereo not drawn)", 4.6],
  ["CC1CCN(c2c(-c3ccc(F)cc3Cl)c(Cl)nc3c(S(C)(=O)=O)cnn23)CC1", 4.2],
  ["Cc1ccsc1-c1c(Cl)nc2c(-c3ncco3)cnn2c1NC(C)C(C)C (stereo not drawn)", 4.3],
  ["CSc1cnn2c(N3CCC(C)CC3)c(-c3ccc(F)cc3Cl)c(Cl)nc12", 5.73],
  ["CC1CCN(c2c(-c3ccc(F)cc3Cl)c(Cl)nc3c(S(=O)(=O)O)cnn23)CC1", 2.48],
  ["Cc1nnc(-c2cnn3c(O)c(-c4ccc(F)cc4Cl)c(O)nc23)o1", 0.67]
]}

[A] Cc1nnc(-c2cnn3c(O)c(-c4ccc(F)cc4Cl)c(O)nc23)[nH]1
[B] CC(C)NC(=O)c1cnn2c(N[C@H](C)C(C)C)c(-c3c(F)cccc3Cl)c(Cl)nc12
[C] Cc1nnc(-c2cnn3c(NC(C)C(C)C)c(-c4ccc(F)cc4Cl)c(Cl)nc23)[nH]1 (stereo not drawn)
[D] Oc1nc2c(-c3ccccn3)cnn2c(O)c1-c1ccc(F)cc1Cl
Task field, ranking: reported chromatographic logP, descending order. The reply should contain the labels ordered as requested.
B, C, D, A
(B: 4.72, C: 2.91, D: 0.91, A: 0.51)
